Kindly supply the reported protein stability index values for the records listed here.
B1: MGC16075 (parent)
chain: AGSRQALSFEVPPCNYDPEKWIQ

- Variants of: B1
- assay.details: protein stability index of a GFP-peptide fusion (GPS, HEK-293T) (PSI 1-6); higher = more stable;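 note: lentivirally expressed fusions sorted by FACS into six bins by GFP to DsRed ratio, PSI derived from sequencing read proportions per bin multiplied by bin number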
- assay.setup: c terminus: native
Numbers only.

mutation.key	protein stability index
V11S	1.84

// each listed variant needs a value for protein stability index
1. P12F
2. N15A
3. P13W

Reply:
1: 2.92; 2: 1.71; 3: 1.98
